# subject of test: AhR (Homo sapiens, UniProt P35869)
# Construct: The HepG2 CYP1A1-Luc cells do express basal luciferase activity that can be increased via potent AhR agonists or decreased via potent AhR antagonists; endogenous in cells
# Sequence (P35869 11-848): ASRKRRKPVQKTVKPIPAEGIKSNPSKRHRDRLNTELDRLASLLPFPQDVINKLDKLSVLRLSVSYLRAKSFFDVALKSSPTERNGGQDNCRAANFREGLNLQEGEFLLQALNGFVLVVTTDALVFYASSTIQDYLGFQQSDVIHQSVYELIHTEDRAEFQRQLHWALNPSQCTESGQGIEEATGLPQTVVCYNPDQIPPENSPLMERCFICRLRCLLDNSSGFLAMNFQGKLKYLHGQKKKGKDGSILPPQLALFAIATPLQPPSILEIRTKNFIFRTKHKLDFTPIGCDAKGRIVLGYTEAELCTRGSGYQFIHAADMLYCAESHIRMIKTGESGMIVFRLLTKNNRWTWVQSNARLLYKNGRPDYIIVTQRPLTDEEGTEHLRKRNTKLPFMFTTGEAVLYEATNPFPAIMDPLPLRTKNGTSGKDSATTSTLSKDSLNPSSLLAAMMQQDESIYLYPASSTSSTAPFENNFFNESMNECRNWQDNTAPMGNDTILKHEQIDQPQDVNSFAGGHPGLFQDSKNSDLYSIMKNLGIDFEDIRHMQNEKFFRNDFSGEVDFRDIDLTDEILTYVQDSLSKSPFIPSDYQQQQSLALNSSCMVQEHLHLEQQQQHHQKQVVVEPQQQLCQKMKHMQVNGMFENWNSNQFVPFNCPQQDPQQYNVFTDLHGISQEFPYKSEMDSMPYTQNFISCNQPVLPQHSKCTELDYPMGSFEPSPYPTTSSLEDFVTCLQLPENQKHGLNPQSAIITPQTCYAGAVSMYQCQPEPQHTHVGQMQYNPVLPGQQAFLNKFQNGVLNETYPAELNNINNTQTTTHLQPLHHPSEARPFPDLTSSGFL
# test: AhR direct luciferase reporter assay in HepG2 cells (HepG2 CYP1A1-LUC)
# measurement setup: 18 hours, luciferase activity, no exogenous AhR agonist or 10 nM VAF347, read-out: AhR potency (AhR antagonistic potency, IC50)
reported metric: IC50

| compound | result |
| --- | --- |
| Cn1cncc1C(=O)Nc1cc2[nH]c(-c3ccccc3C(F)F)cc2cn1 [4/1] | 0.1 to 1 µM |
| Cc1ccccc1-c1cc2cnc(NC(=O)c3ncnn3C)cc2[nH]1 [2/1] | < 0.1 µM |
| Cn1ncnc1C(=O)Nc1cc2[nH]c(-c3cc(C(F)F)ccc3F)cc2cn1 [2/5] | 0.1 to 1 µM |
| CCc1ccc(C(F)(F)F)c(-c2cc3cnc(NC(=O)c4ncnn4C)cc3[nH]2)c1 [Example 1/13] | < 0.1 µM |
| Cn1ncnc1C(=O)Nc1cc2[nH]c(-c3ccccc3C(F)(F)F)cc2cn1 [Example 1/2] | < 0.1 µM |
| O=C(Nc1cc2[nH]c(-c3ccccc3C(F)(F)F)cc2cn1)c1ccccn1 [Example 1/3] | < 0.1 µM |
| CC(C)c1ccccc1-c1cc2cnc(NC(=O)c3ncnn3C)cc2[nH]1 [Example 2] | 0.1 to 1 µM |
| Cn1ncnc1C(=O)Nc1cc2[nH]c(-c3ccccc3C(F)F)c(Cl)c2cn1 [2/4] | < 0.1 µM |
| Cn1nccc1C(=O)Nc1cc2[nH]c(-c3ccccc3C(F)(F)F)cc2cn1 [Example 1/1] | < 0.1 µM |
